Provenance of the data: patent US20220324970A1

biological target: T1, human pIgR extracellular domain (ECD) (human, UniProt P01833 19-638); test: BLI; summary table, repeats Table 1
T1 construct: also called hpIgR ECD
T1 sequence (P01833 other isoform, or with tags, fused parts or gaps): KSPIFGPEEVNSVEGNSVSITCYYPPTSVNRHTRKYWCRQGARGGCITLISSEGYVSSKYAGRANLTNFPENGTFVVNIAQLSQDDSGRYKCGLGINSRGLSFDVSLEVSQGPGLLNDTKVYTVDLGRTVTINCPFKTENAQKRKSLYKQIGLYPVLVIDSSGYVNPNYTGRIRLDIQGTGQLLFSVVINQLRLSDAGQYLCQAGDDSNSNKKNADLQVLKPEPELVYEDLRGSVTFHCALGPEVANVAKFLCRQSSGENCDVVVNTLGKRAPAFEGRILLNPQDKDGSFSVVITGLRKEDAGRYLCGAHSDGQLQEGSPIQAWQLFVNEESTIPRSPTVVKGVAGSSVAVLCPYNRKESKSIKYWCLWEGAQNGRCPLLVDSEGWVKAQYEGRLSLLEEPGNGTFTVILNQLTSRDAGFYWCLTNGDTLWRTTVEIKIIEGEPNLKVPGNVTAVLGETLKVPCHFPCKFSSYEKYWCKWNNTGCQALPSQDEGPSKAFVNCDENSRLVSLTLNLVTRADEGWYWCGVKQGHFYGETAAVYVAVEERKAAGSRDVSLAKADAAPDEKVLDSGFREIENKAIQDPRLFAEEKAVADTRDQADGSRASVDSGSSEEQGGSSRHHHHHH
metric: pKd
Answers are plain numbers, as −log10 of the molar value.

{"columns": ["binder", "val"],
 "data": [
  ["VHH3-linker-mono-Fc protein (Fc fusion, made in CHO cells; also called VHH3-mono-Fc; hpIgR_021) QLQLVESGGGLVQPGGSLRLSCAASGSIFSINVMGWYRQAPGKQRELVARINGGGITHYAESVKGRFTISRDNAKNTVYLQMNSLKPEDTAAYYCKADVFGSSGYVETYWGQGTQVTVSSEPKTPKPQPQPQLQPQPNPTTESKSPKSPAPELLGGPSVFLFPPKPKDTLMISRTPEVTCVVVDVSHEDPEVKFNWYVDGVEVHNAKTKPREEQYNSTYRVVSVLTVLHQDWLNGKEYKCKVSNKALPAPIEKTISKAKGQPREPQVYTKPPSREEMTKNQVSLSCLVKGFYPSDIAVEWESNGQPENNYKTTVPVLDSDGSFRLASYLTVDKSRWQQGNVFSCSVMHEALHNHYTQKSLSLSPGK", 8.30],
  ["VHH10-linker-mono-Fc protein (Fc fusion, made in CHO cells; also called VHH10-mono-Fc; hpIgR_225) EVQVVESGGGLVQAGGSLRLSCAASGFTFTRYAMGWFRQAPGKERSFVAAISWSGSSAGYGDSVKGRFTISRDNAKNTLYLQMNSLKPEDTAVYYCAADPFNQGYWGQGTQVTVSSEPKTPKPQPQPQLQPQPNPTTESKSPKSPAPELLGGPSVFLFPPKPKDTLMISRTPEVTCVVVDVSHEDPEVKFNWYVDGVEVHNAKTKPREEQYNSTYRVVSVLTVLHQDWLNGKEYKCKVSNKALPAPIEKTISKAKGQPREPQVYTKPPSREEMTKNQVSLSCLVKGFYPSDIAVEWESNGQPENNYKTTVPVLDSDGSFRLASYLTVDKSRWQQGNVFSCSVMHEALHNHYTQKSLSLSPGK", 6.59]
]}

Now for another entry.
Task: Could you share which pKd value was measured for VHH11-linker-mono-Fc protein (Fc fusion, made in CHO cells; also called VHH11-mono-Fc; hpIgR_250) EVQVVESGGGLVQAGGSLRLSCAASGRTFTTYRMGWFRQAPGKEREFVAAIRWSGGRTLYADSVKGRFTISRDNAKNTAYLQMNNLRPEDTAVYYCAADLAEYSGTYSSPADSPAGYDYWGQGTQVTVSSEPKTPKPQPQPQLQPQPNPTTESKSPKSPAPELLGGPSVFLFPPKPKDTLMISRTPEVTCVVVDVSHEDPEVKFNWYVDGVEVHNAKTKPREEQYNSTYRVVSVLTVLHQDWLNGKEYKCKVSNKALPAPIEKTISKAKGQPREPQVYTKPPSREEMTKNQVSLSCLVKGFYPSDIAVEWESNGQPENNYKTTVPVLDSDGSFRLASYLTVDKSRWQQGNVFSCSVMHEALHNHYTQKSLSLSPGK ?
Output: 7.72
